# testSystem: T1, NPNA4 peptide (Ac-[residues removed]-NH2) (Plasmodium falciparum (synthetic CSP …)
# T1 construct: source: synthetic peptide, bought: Innopep Inc
# runDescription: ITC; peptide in the syringe, Fab (~10 uM) in the cell; DPBS; 25 C; single-site binding model; triplicate; apparent affinity
# conditionContext: both partners purified
Please respond with reported pKd for every item in the list.
Give bare numbers, as −log10 of the molar value.

A selection of reference data follows.
binder	pKd
Fab364 (Fab, V domains shown, also called mAb364; source: ExpiCHO cells, purified (HiTrap Protein G, SEC)) VH: QVQLVESGGGVVQPGGSLRLSCAASGFTFSGYGMHWVRQVPGKGLEWVAIIWFDGSQKYYADSVQGRFTISRDNSKKTLFLRMNSLRAEDTAVYYCAKVHDDEPTQDYWGQGTLVTVSS VL: DIQMTQSPSTLSASVGDRVTITCRASQGISTSLAWYQQKPGKAPKLLIYKASSLESGVPSRFSGSGSGTEFTLTITSLQPEDFATYYCQQYKRYWTFGQGTKVEIK	7.55
Fab397 (Fab, V domains shown, also called mAb397; source: ExpiCHO cells, purified (HiTrap Protein G, SEC)) VH: EVQLVKSGGGLVKPGGSLRLSCAVSGFTFTDAWMSWVRQAPGKGPEWVGRIKSNPDGGTTDYAAPVRGRFTISRDDSKNTLYLQMNNLKTEDTAVYYCITDRDFYRSGGSWGQGTLVTV VL: DIVMTQSPLSLPVTPGEPASISCRSRQSLLYSNGDNYLDWYLQKPGQSPQLLIYLGSNRAPGVPDRFSGSGSGTDFTLKISRVEAEDVGVYYCMQTLQTPHTFGQGTKLEIK	6.59
Fab224 (Fab, V domains shown, also called mAb224; source: ExpiCHO cells, purified (HiTrap Protein G, SEC)) VH: EVQLVESGGGLVQPGRSLRLPCTASGFSFGDHAMSWVRQAPGKGLEWVGFIRKTTYGATTHYAAAVRGRFTISRDDSKSIVYLQMNSLKTEDTAVYFCTRVQLDYGPGYQYYGMDVWGQGTTVTVSS VL: ESVLTQPPSVSGAPGQRVTISCTGMNSNIGAGYDVYWYQQLPGRAPKLLIYGNSNRPSGVPDRFSGSRSGTSASLAITGLQAEDEADYYCQSYDTSLNGWAFGGGTKLTVL	6.90

Please turn your attention to the following entry.
Exercise: # get_value(readout='pKd', item= Fab399 (Fab, V domains shown, also called mAb399; source: ExpiCHO cells, purified (HiTrap Protein G, SEC)) VH: EVQLVESGGGLVQPGRSLRLSCTTSGFTFGDYAMSWFRQAPGKGLEWVGFIRSKGFGGTAEYAAFVKGRFTISRDDSRSIAYLQMTSLKPEDTAVYYCSRVGVVIATAVYWGQGTLVTVSS VL: DILMTQTPLSLSVTPGQPASISCKSSQSLLDNDGKTYLYWYLQKPGQSPQLLIYEVSNRFSGVPERFSGSGSGTDFTLKIRRVEAEDVGVYYCMQRIDLPWTFGQGTKVEIK )
Key: 5.23
